PDE4:HARBS values, listed per item
- Tested on: High Affinity Rolipram Binding Site of PDE4 in Mouse Brain
- Assay overview: Displacement of [3H]-rolipram from its high affinity binding site (HARBS)
- Details: ratio of IC50 for PDE4 catalytic activity to concentration displacing 50% of rolipram from HARBS

Molecule	Experimental result
COc1ccc([C@H]2COC(=O)C(Cc3cccc(C(F)(F)F)c3)C2)cc1OC1CCCC1 (some centres unmarked)	<1
COc1ccc([C@H]2COC(=O)C(Cc3ccc(O)cc3)C2)cc1OC (some centres unmarked)	<1
COc1ccc([C@H]2COC(=O)C(Cc3ccccc3[N+](=O)[O-])C2)cc1OC1CCCC1 (some centres unmarked)	<1
COc1ccc([C@H]2COC(=O)C(Cc3cccc(OCc4ccccc4)c3)C2)cc1OC1CCCC1 (some centres unmarked)	<1
COc1ccc([C@H]2COC(=O)C(Cc3ccc4c(c3)OCO4)C2)cc1OC1CCCC1 (some centres unmarked)	<1
C=C(C)COc1cc([C@@H]2CCC(=O)OC2)ccc1OC	1
COc1ccc([C@H]2COC(=O)C(Cc3ccc(OCc4ccccc4)c(OCc4ccccc4)c3)C2)cc1OC (some centres unmarked)	<1

Find the recorded PDE4:HARBS belonging to COc1cc(CC2C[C@@H](c3ccc(OC)c(OC4CCCC4)c3)COC2=O)ccc1O (some centres unmarked) and report it.
>1

* * *

IC50 values, listed per item
- Tested on: primary human neutrophils
- Assay overview: Generation of reactive oxygen species by fMLP-activated neutrophils (luminol-enhanced chemiluminescence)
- Type: cell-based
- Details: Neutrophil, read-out: IC50 RANGE (μM) >100, ROS production, X marks this range

Sample answers from the record:
Compound	IC50
COc1cc(CC2C[C@@H](c3ccc(OC)c(OC4CCCC4)c3)CNC2=O)ccc1OCc1ccccc1 (stereo partly drawn)	> 100 µM
COc1ccc(CC2C[C@@H](c3ccc(OC)c(OC)c3)COC2=O)cc1 (stereo partly drawn)	> 100 µM

// below: IC50 requested for another compound
What IC50 appears in the records for this compound with primary human neutrophils? COc1ccc([C@H]2COC(=O)C(Cc3ccc(F)c(F)c3)C2)cc1OC (stereo partly drawn)
> 100 µM

* * *

- Tested on: IL-2 production in concanavalin A stimulated primary human CD4+ T-cells
- Assay overview: IL-2 production (Th1 profile) in concanavalin A stimulated primary human CD4+ T-cells
- Type: cell-based
- Details: Homo sapiens, T-cell; 10 μg/mL Concanavalin A, 48 hours; X marks this range; read-out: IL-2 IC50 RANGE (μM) 2.0-20
- Text: The assay on the primary human T-cells involves their activation by concanavalin A (conA); (Sigma, Catalogue No. C 5275), followed by ELISA detection for cytokines for either profile. […] CD 4+T-cell Preparation: Cells from Leukocyte preparation were resuspended in sterile PBS pH 7.4 supplemented with 2-6% Fetal Bovine Serum (FBS) at a density of 5×10^7 cells/mL. Cells were then ready for isolation. […]
Property label: IC50

Find the recorded IC50 belonging to COc1ccc(C2CNC(=O)C2)cc1OC1CCCC1 (stereo not shown) [Rolipram, reference compound] and report it.
2 to 20 µM

* * *

- Test system: IL-2 production in concanavalin A stimulated primary human CD4+ T-cells
- Assay overview: IL-2 production (Th1 profile) in concanavalin A stimulated primary human CD4+ T-cells
- Type: cell-based
- Details: Homo sapiens, T-cell; 10 μg/mL Concanavalin A, 48 hours; X marks this range; read-out: IL-2 IC50 RANGE (μM) 0.02-0.2
IC50 values, listed per item

Compound	IC50
COc1cc(C[C@@H]2C[C@@H](c3ccc(OC)c(OC)c3)COC2=O)ccc1O	0.02 to 0.2 µM

// below: IC50 requested for another compound
Find the recorded IC50 belonging to COc1ccc([C@H]2CNC(=O)C(Cc3ccc(OCc4ccccc4)c(OC)c3)C2)cc1OC (some centres unmarked) and report it.
0.02 to 0.2 µM

Source: patent US20030186943A1
